Tested on: P388 leukemia ip, CD2F1 mice, survival T/C
Test: NCI In Vivo Anticancer Drug Screen. Data for tumor model P388 Leukemia (intraperitoneal) in CD2F1 (CDF1) mice
Conditions: endpoint: median survival time; dose: 120.0 mg/kg/injection; schedule: Q01DX005 (ip); vehicle: Klucel (hydroxypropylcellulose) (HPC); higher = longer survival
Inconclusive results and toxic doses are left out.
parameter: T/C

T/C recorded for this compound, COc1ccc(OC)c(/C=C2/C(=O)N(c3ccccc3)N=C2C)c1 , is 105 % of control

For reference, reported T/C for NC1=C(O)C(=O)C(c2ccc3c(c2)CCC3)O1 (centres undefined) stands at 87 % of control

Recorded T/C (compound [CH3][Ge]1([CH3])[CH2]C(c2ccccc2)C(c2ccccc2)[CH2]1 (centres undefined) ): 97 % of control

The compound listed as C/C(=N\OCC(O)CNCCNC(=O)C(C)C)c1ccc(N(C)C)cc1 (centres undefined) has a reported T/C of 99 % of control

---

Tested on: P388 leukemia ip, CD2F1 mice, survival T/C
Assay: NCI In Vivo Anticancer Drug Screen. Data for tumor model P388 Leukemia (intraperitoneal) in CD2F1 (CDF1) mice
Settings: endpoint: median survival time; dose: 6.25 mg/kg/injection; schedule: Q01DX009 (ip); vehicle: Klucel (hydroxypropylcellulose) (HPC); higher = longer survival
Toxic doses and inconclusive results are not listed.
Record form. Attribute: T/C. Fill in for each entry.

N#CNc1nc2ccccc2[nH]1 has a reported T/C of 100 % of control

Entry COc1cc2c(cc1OC)C(C)(C)N(Cc1ccccc1)C(C)C2(C)C (configuration not stated) , T/C reported as 105 % of control

Reported T/C ( CC(C)NCC(O)COc1ccccc1C1CCCCC1 (configuration not stated) ) = 103 % of control

The reported value for Oc1ccccc1C=NCc1ccccc1.[CH-]=C([CH2-])C.[Pd+2] in terms of T/C is 107 % of control

// field: T/C; key: CN(C(=S)S(C)(=O)=O)c1ccccc1 ; value = 100 % of control

// T/C value for CN(CCN(C)C(=S)SCc1ccccc1)C(=S)SCc1ccccc1 : 100 % of control

Lab book: T/C of N#CC1(N2CCCCC2)CCCCC1 noted as 103 % of control

---

Tested on: P388 leukemia ip, CD2F1 mice, survival T/C
Assay: NCI In Vivo Anticancer Drug Screen. Data for tumor model P388 Leukemia (intraperitoneal) in CD2F1 (CDF1) mice
Conditions: endpoint: median survival time; dose: 60.0 mg/kg/injection; schedule: Q01DX005 (ip); vehicle: Klucel (hydroxypropylcellulose) (HPC); higher = longer survival
Toxic doses and inconclusive results are not listed.
Exercise: state measured T/C for each of the molecules provided.

T/C for P388 leukemia ip, CD2F1 mice, survival T/C with input COc1ccc2[s+]c(-c3ccccc3)ccc2c1 equals 100 % of control

Value sought: T/C, system P388 leukemia ip, CD2F1 mice, survival T/C, item CCCCCCc1cc(-c2cc(CCCCCC)[nH]n2)n[nH]1 . Result: 100 % of control

Sample O=C(Nc1c(Cl)cccc1Cl)OCc1ccc2c(c1)OCO2 , system: P388 leukemia ip, CD2F1 mice, survival T/C. Its T/C is 92 % of control

Lab note: molecule O=S(=O)(c1cccc(C(F)(F)F)c1)N(CCCCCN(S(=O)(=O)c1cccc(C(F)(F)F)c1)S(=O)(=O)c1cccc(C(F)(F)F)c1)S(=O)(=O)c1cccc(C(F)(F)F)c1 tested on P388 leukemia ip, CD2F1 mice, survival T/C; recorded T/C was 101 % of control

Case CNS(=O)(=O)c1c([O-])on[n+]1-c1ccccc1 , P388 leukemia ip, CD2F1 mice, survival T/C, T/C recorded as 99 % of control

Observed T/C, P388 leukemia ip, CD2F1 mice, survival T/C, [CH3][Sn]([CH3])([Cl])[Cl].c1ccc(-c2nnc(-c3ccccn3)nc2-c2ccccc2)cc1 : 95 % of control

Record for [CH3][Ge]1([CH3])[CH2]C(c2ccccc2)=C(c2ccccc2)[CH2]1 under target or system P388 leukemia ip, CD2F1 mice, survival T/C: T/C reported as 99 % of control

Summary: CCOC(=O)c1c(C(=O)Nc2ccccc2)c(-c2ccccc2)n(NC(=O)c2cccc(Cl)c2)c1C , P388 leukemia ip, CD2F1 mice, survival T/C, T/C = 98 % of control

Result for COc1ccc(C2OC(=O)C(=O)C2=O)cc1OC (stereo not given) , tested on P388 leukemia ip, CD2F1 mice, survival T/C, T/C: 100 % of control

Noted T/C for COC(=O)C1(CC(=O)c2c(C)[nH]c3ccccc23)NC(=S)NC(=O)C1C#N (stereo not given) , tested on P388 leukemia ip, CD2F1 mice, survival T/C: 100 % of control

---

Test system: P388 leukemia ip, CD2F1 mice, survival T/C
Test: NCI In Vivo Anticancer Drug Screen. Data for tumor model P388 Leukemia (intraperitoneal) in CD2F1 (CDF1) mice
Settings: endpoint: median survival time; dose: 100.0 mg/kg/injection; schedule: Q01DX005 (ip); vehicle: saline with Tween-80; higher = longer survival
Toxic doses and inconclusive results are not listed.
parameter: T/C

Data point: CCCCCCCN(CCCCCCC)CC(O)c1cc2ccccc2c2cc(Br)ccc12 (stereo unspecified) ; T/C = 104 % of control

Memo: CCOC(=O)CC1(C)SCCN1C(=O)OCC (stereo unspecified) , reported T/C: 91 % of control

The measured T/C associated with Nc1nnc(CCC(=O)Nc2cccc(C(F)(F)F)c2)n1N reads 105 % of control

Short answer for CC1(Br)CN(C(=S)Nc2ccccc2)C1=O (stereo unspecified) : T/C was 105 % of control

Entry CCNc1nc(NC(C)C)nc(N2CCc3ccccc3C2)n1 — recorded T/C = 117 % of control

Looking up C/C(=N\NC(=S)N1CCN(c2ccccn2)CC1)c1cccc2cccnc12 , I see its T/C listed as 106 % of control

---

Test system: P388 leukemia ip, CD2F1 mice, survival T/C
Assay: NCI In Vivo Anticancer Drug Screen. Data for tumor model P388 Leukemia (intraperitoneal) in CD2F1 (CDF1) mice
Conditions: endpoint: median survival time; dose: 100.0 mg/kg/injection; schedule: Q01DX005 (ip); vehicle: Klucel (hydroxypropylcellulose) (HPC)
Toxic doses and inconclusive results are not listed. Rule for the calls: active = survival T/C of 150% or more; inactive = T/C below 125% in these data.
Entry note: the call must match one of active, inactive

Can you look up the reported call for COc1ccc2c(c1)OC(C)(C)C(c1ccccc1)C2c1ccc(OCCBr)c([N+](=O)[O-])c1 (configuration not stated) for me?
inactive

Recorded test call requested for CCCCn1c(C)nc2c(cnn2C)c1=O
inactive

Hi, sorry to bother you, what did the test record for N#Cc1ccc(-c2nn[nH]n2)cc1 ?
inactive

Which outcome was entered for the compound Cc1ccc(C(=O)c2cc3c([nH]c4ccccc43)c(C)c2C(=O)O)cc1 in this test?
inactive

Name the outcome recorded for O=C(Nc1nnc(-c2ccccc2)s1)c1cc(=O)c2cc(Cl)ccc2o1 in the assay.
inactive

For this compound, state the assay outcome: NC(N)=NN=C(C1CC1)C1CC1
inactive

Could you please tell me the result logged for CC1(C)OC(CP(=O)(c2ccccc2)c2ccccc2)C(CP(=O)(c2ccccc2)c2ccccc2)O1 (configuration not stated) in this assay?
inactive

Call for entry CCOC(=O)C(=CNc1ccc2c(C)cc3ccc(C(=O)OCC)c(=O)n3c2n1)C(=O)OCC :
inactive

# lookup: test call for O=C(O)CCNC(Cc1ccc(O)cc1)C(=O)O (configuration not stated)
inactive

Please state the recorded outcome for this compound: CCOc1cc2c(cc1C(C)c1ccc(OCc3ccccc3)c(OC)c1)OCO2 (configuration not stated)
inactive

Hi, sorry to bother you, what did the test record for O=C(/C=C/c1ccccc1)[c-]1[c-][c-][c-][c-]1.[Fe].[c-]1[c-][c-][cH-][c-]1 ?
inactive

I'd appreciate the recorded outcome for CC(/C=C/c1ccccc1)=N\O from this test.
inactive

Can you look up the reported call for Cc1c(N(C)c2ccccc2)c(=S)n(C)c(=S)n1C for me?
inactive

How was O=C(NC(c1ccccc1)c1cccs1)c1cccs1 (configuration not stated) classified in this test?
inactive

What did the test return for COc1ccccc1-n1c(C)nc2c(cnn2CN2CCCCC2)c1=O ?
inactive

Hi, sorry to bother you, what did the test record for O=c1c2ccccc2c(=O)c2c1ccc1[nH]c3ccccc3n(-c3ccccc3)c12 ?
inactive

Record request — test call for CC(C)CC(C(=O)O)N1C(=O)c2ccccc2C1=O (configuration not stated)
inactive

So what was the verdict on N=C(N)SCc1cccc(C(=O)O)c1 in this test?
inactive

What classification did Cc1ccc(C2c3c(c4ccccc4n3C(=O)c3ccccc3)C(=O)NN2C(=O)c2ccccc2)cc1 (configuration not stated) end up with in this test?
inactive

What did this assay record as the result for S=c1oc(-c2ccc3c(c2)OCO3)nn1CN1CCN(Cn2nc(-c3ccc4c(c3)OCO4)oc2=S)CC1 ?
inactive

Returns: the outcome recorded for CC1CN=C(CCc2ccc(NC(=O)c3ccc(C(=O)Nc4ccc(CCC5=NCC(C)N5)cc4)cc3)cc2)N1 (configuration not stated) in this assay.
active

# lookup: test call for [O-][n+]1cscc1-c1nc2ccccc2[nH]1
inactive
